The entries below come with measured IC50 values attached.
biological target: BRD2 (BD1) (Homo sapiens, UniProt P25440); construct: a bromodomain of BRD2 (BD1) and BRD3 (BD1), one of the BRD protein family; experiment: Binding inhibitory effect on BRD2 protein (AlphaScreen, GST-BRD2 (BD1) / biotinylated acetyl-histone H4 peptide); conditions: 100 nM GST-BRD2 (BD1), 100 nM biotinylated acetyl-histone H4 (Lys5, 8, 12, 16) peptide
Sequence (P25440 74-180 limits assumed, species assumed): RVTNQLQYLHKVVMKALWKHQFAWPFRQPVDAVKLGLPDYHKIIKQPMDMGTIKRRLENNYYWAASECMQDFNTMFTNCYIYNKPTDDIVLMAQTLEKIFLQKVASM
Reply with just the number (in µM).

[
  {
    "COMPOUND": "CN1Cc2c(cccc2-c2ccccc2-c2ccc(CNCCS(C)(=O)=O)o2)C1=O",
    "MEASURED ON": "BRD2 (BD1) (Homo sapiens, UniProt P25440)",
    "IC50 [µM]": 19.7
  },
  {
    "COMPOUND": "CNC(=O)CC1C(=O)NCCN1Cc1oc(-c2ccccc2-c2cccc3c2CN(C)C3=O)cc1C (centres unmarked)",
    "MEASURED ON": "BRD2 (BD1) (Homo sapiens, UniProt P25440)",
    "IC50 [µM]": 10.9
  },
  {
    "COMPOUND": "C#CCN(C)Cc1ccc(-c2ccccc2-c2cccc3c2CN(C)C3=O)o1",
    "MEASURED ON": "BRD2 (BD1) (Homo sapiens, UniProt P25440)",
    "IC50 [µM]": 15.8
  }
]

Ask: Kindly indicate its recorded IC50. Item: `CCNCc1ccc(-c2ccccc2-c2cccc3c2CN(C)C3=O)o1`
Result: 16.8

Ask: Kindly indicate its recorded IC50. Item: `CN1Cc2c(cccc2-c2ccccc2-c2ccc(CN3CCC(Cc4ccncc4)(C(N)=O)CC3)o2)C1=O`
Result: 15

Ask: Kindly indicate its recorded IC50. Item: CNC(=O)C1(C)CN(C(=O)c2ccc(-c3ccccc3-c3cccc4c3CN(C)C4=O)o2)CCC1O (centres unmarked)
Result: 15.7

Ask: Kindly indicate its recorded IC50. Item: CNC(=O)CC1C(=O)NCCN1Cc1ccc(-c2ccccc2-c2cccc3c2CN(C)C3=O)o1 (centres unmarked)
Result: 13

Ask: Kindly indicate its recorded IC50. Item: `CN1Cc2c(cccc2-c2ccccc2-c2ccc(CN3CCN(c4cccc(F)c4)CC3)o2)C1=O`
Result: 13.3

###

The entries below come with measured IC50 values attached.
target: BRD2 (BD1) (Homo sapiens); construct: a bromodomain of BRD2 (BD1) and BRD3 (BD1), one of the BRD protein family; test: Binding inhibitory effect on BRD2 protein (AlphaScreen, GST-BRD2 (BD1) / biotinylated acetyl-histone H4 peptide); conditions: 100 nM GST-BRD2 (BD1), 100 nM biotinylated acetyl-histone H4 (Lys5, 8, 12, 16) peptide
Reply with just the number (in µM).

Consider the following illustrative entries.
[
  {
    "MOLECULE": "CN1Cc2c(cccc2-c2ccccc2-c2ccc(CN3CCN(C(C)(C)C(N)=O)CC3)o2)C1=O",
    "MEASURE UNIT": "µM",
    "IC50": 15.8
  },
  {
    "MOLECULE": "CN1Cc2c(cccc2-c2ccccc2-c2ccc(CN3CCC(N(C)C)CC3)o2)C1=O",
    "MEASURE UNIT": "µM",
    "IC50": 15.8
  }
]

Ask: Kindly indicate its recorded IC50. Item: CN1Cc2c(cccc2-c2ccccc2-c2ccc(CN3CCC4(CC3)C(=O)N(C)CC4c3ccc(F)cc3)o2)C1=O (centres unmarked)
Result: 15.3

Ask: Kindly indicate its recorded IC50. Item: `CCCNCc1ccc(-c2ccccc2-c2cccc3c2CN(C)C3=O)o1`
Result: 14.1

Ask: Kindly indicate its recorded IC50. Item: CCC1(C(=O)NC)CCCN(C(=O)c2ccc(-c3ccccc3-c3cccc4c3CN(C)C4=O)o2)C1 (centres unmarked)
Result: 14.5

Ask: Kindly indicate its recorded IC50. Item: `CN1Cc2c(cccc2-c2ccccc2-c2ccc(CN3CCOCC3)o2)C1=O`
Result: 7.65

Ask: Kindly indicate its recorded IC50. Item: `CN1Cc2c(cccc2-c2ccccc2-c2ccc(CN3CCCCC3)o2)C1=O`
Result: 14.5

Ask: Kindly indicate its recorded IC50. Item: `CN1Cc2c(cccc2-c2ccccc2-c2ccc(COCN3CCC(F)(F)CC3)o2)C1=O`
Result: 9.5

###

target: BRD2 (BD1) (Homo sapiens); construct: a bromodomain of BRD2 (BD1) and BRD3 (BD1), one of the BRD protein family; experiment: Binding inhibitory effect on BRD2 protein (AlphaScreen, GST-BRD2 (BD1) / biotinylated acetyl-histone H4 peptide); conditions: 100 nM GST-BRD2 (BD1), 100 nM biotinylated acetyl-histone H4 (Lys5, 8, 12, 16) peptide
pIC50: −log10 of the molar value.
Rule: pIC50 under 5 gives -1, otherwise 1.

[
  {
    "COMPOUND": "CNC(=O)C1(C)CN(Cc2oc(-c3ccccc3-c3cccc4c3CN(C)C4=O)cc2C)CCC1O (centres unmarked)",
    "CLASS": -1
  },
  {
    "COMPOUND": "CNC(=O)C1(Cc2ccc(F)cc2)CCN(C(=O)c2ccc(-c3ccccc3-c3cccc4c3CN(C)C4=O)o2)CC1",
    "CLASS": -1
  },
  {
    "COMPOUND": "CN1Cc2c(cccc2-c2ccccc2-c2ccc(CN3CCC(Cc4ccccc4)(C(N)=O)CC3)o2)C1=O",
    "CLASS": -1
  }
]

Ask: Test whether the compound `CN1Cc2c(cccc2-c2ccccc2-c2ccc(CNCc3cnn(C)c3)o2)C1=O` records pIC50 of 5 or higher.
Result: 1

Ask: Test whether the compound `CNCc1ccc(-c2ccccc2-c2cccc3c2CN(C)C3=O)o1` records pIC50 of 5 or higher.
Result: -1

###

test system: retinal degeneration mouse model; assay: Electroretinogram (ERG) in blue LED-induced retinal degeneration mouse model; assay type: in vivo, albino BALB/c mice; conditions: single intravitreal injection 1 hour after LED exposure, compound 24 nM, Com. Ex. 4 25 mg/kg
The entries below come with measured Wavelength enhanced multiple compared to normal saline-treated group, a-wave values attached.
Simply state the number, no unit and no words.

Consider the following illustrative entries.
[
  {
    "COMPOUND": "CN1Cc2c(cccc2-c2ccccc2-c2ccc(CNCc3cnn(C)c3)o2)C1=O [Compound 18]",
    "OBSERVED VALUE": 2.05
  },
  {
    "COMPOUND": "CNC(=O)C1(Cc2ccc(F)cc2)CCN(Cc2ccc(-c3ccccc3-c3cccc4c3CN(C)C4=O)o2)CC1 [Compound 21]",
    "OBSERVED VALUE": 2.17
  },
  {
    "COMPOUND": "CNC(=O)C1(C)CN(Cc2ccc(-c3ccccc3-c3cccc4c3CN(C)C4=O)o2)CCC1O (stereo not drawn) [Compound 25]",
    "OBSERVED VALUE": 1.52
  },
  {
    "COMPOUND": "CCC1(C(=O)NC)CCCN(Cc2oc(-c3ccccc3-c3cccc4c3CN(C)C4=O)cc2C)C1 (stereo not drawn) [Compound 40]",
    "OBSERVED VALUE": 1.16
  },
  {
    "COMPOUND": "CNC(=O)C1(Cc2ccccc2)CCCN1Cc1ccc(-c2ccccc2-c2cccc3c2CN(C)C3=O)o1 (stereo not drawn) [Compound 28]",
    "OBSERVED VALUE": 1.31
  },
  {
    "COMPOUND": "CNC(=O)CC1C(=O)NCCN1Cc1oc(-c2ccccc2-c2cccc3c2CN(C)C3=O)cc1C (stereo not drawn) [Compound 42]",
    "OBSERVED VALUE": 1.25
  },
  {
    "COMPOUND": "CN1Cc2c(cccc2-c2ccccc2-c2ccc(COCN3CCC(F)(F)CC3)o2)C1=O [Compound 37]",
    "OBSERVED VALUE": 1.45
  },
  {
    "COMPOUND": "CNC(=O)C1(Cc2ccc(F)cc2)CCN(Cc2oc(-c3ccccc3-c3cccc4c3CN(C)C4=O)cc2C)CC1 [Compound 39]",
    "OBSERVED VALUE": 1.21
  }
]

Now look at this one.
Ask: Kindly indicate its recorded Wavelength enhanced multiple compared to normal saline-treated group, a-wave. Item: CN1Cc2c(cccc2-c2ccccc2-c2ccc(CN3CCOCC3)o2)C1=O [Compound 13]
Result: 1.29

###

biological target: BRD3 (BD1) (Homo sapiens, UniProt Q15059); construct: a bromodomain of BRD2 (BD1) and BRD3 (BD1), one of the BRD protein family; GST; assay: Binding inhibitory effect on BRD3 protein (same manner as Experimental Example 1-1)
Sequence (Q15059 34-140 limits assumed, species assumed): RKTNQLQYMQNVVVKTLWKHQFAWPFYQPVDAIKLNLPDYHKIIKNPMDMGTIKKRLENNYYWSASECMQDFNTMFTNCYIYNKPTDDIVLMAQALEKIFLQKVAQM
PARAMETER: IC50 (nM)
Reply with just the number (in nM).

Consider the following illustrative entries.
[
  {
    "MOLECULE": "CN1CCN(CCNCc2ccc(-c3ccccc3-c3cccc4c3CN(C)C4=O)o2)CC1 [Compound 10]",
    "OBSERVED VALUE": 3890
  },
  {
    "MOLECULE": "CNCc1ccc(-c2ccccc2-c2cccc3c2CN(C)C3=O)o1 [Compound 1]",
    "OBSERVED VALUE": 1390
  },
  {
    "MOLECULE": "CNC(=O)C1(Cc2ccccc2)CCCN1Cc1ccc(-c2ccccc2-c2cccc3c2CN(C)C3=O)o1 (centres unmarked) [Compound 28]",
    "OBSERVED VALUE": 4360
  },
  {
    "MOLECULE": "C#CCN(C)Cc1ccc(-c2ccccc2-c2cccc3c2CN(C)C3=O)o1 [Compound 6]",
    "OBSERVED VALUE": 2610
  }
]

Now look at this one.
Ask: Kindly indicate its recorded IC50. Item: CN1Cc2c(cccc2-c2ccccc2-c2ccc(CNCc3cnn(C)c3)o2)C1=O [Compound 18]
Result: 2670
